Tested on: HepG2
Assay: cell viability relative to DMSO; higher = less toxic
Conditions: 72 h; 1 nM
Measurement kind: cell viability (%)
Give the value, in units of %, as a plain number.

I have this molecule here, `Oc1ccc2ccccc2c1SSc1c(O)ccc2ccccc12` , and I need its recorded cell viability.
104

Look at this molecule and give its reported cell viability. `CN1CCN(C2CCN(C(=O)Nc3cc(Oc4ccc(NC(=O)C5(C(=O)Nc6ccc(F)cc6)CC5)c(F)c4)ccn3)CC2)CC1`
97.8

Entry `CCN(CC)CCOCCOC(=O)C1(c2ccccc2)CCCC1` : reported cell viability = ?
104

Data request, read-out cell viability, for `Nc1ncccc1-c1nc2ccc(-c3ccccc3)nc2n1-c1ccc(C2(N)CCC2)cc1`
102

What does the record list as cell viability for `CCN1C[C@]2(OC(=O)c3ccccc3NC(C)=O)CC[C@H](OC)[C@@]34[C@@H]2C[C@@H]([C@@H]13)[C@@]1(O)C[C@H](OC)[C@H]2C[C@@H]4[C@]1(O)[C@H]2OC` ?
101

Report cell viability for `C[C@@H]1CN(c2c(F)c(N)c3c(=O)c(C(=O)O)cn(C4CC4)c3c2F)C[C@H](C)N1` please.
110

May I ask what cell viability has been recorded for `O=C1NC(=S)NC(=O)C1C(=O)Nc1ccccc1` ?
104

Data request, read-out cell viability, for `Nc1ncnc2c1c(-c1cccc(OCc3ccccc3)c1)cn2[C@H]1C[C@@H](CN2CCC2)C1`
96.4

Please look up its cell viability: `N#Cc1c(N)nc(SCC(N)=O)c(C#N)c1-c1ccc(OCC2CC2)cc1`
102

Query (molecule): `Cc1nc(N)sc1CCN` ; field requested: cell viability
104

Any idea what its cell viability is? The molecule is `CC(=O)Nc1cccc(O)c1`
103

Quick one: cell viability for CC(=O)OCC(=O)NCCCOc1cccc(CN2CCCCC2)c1 [roxatidine-acetate] ?
94.3

Need cell viability of `COc1ccc2[nH]c(C(=O)c3ccccc3)cc2c1` , thanks.
99.2

Consider the molecule shown here: `Cc1c(C(=O)NCCCO)cnn1-c1nc(-c2cccc(C(F)(F)F)c2)cs1` What is its recorded cell viability?
99.3

What does the record list as cell viability for `CCS(=O)(=O)N1CCC[C@@H]2CN3CCc4cc(OC)ccc4[C@@H]3C[C@@H]21` ?
99.9

Give the measured cell viability of `Cn1cc(-c2ccncc2)c(-c2ccc(OCc3ccc4ccccc4n3)cc2)n1` .
105

Could you tell me which cell viability is on file for O=C(Nc1ccc(-c2ccnc(Nc3ccc(N4CCOCC4)cc3)n2)cc1)C1CCCN1 (stereo not given) ?
95.1

Returns the measured cell viability for the input molecule. Input: `NC(=O)CC[C@H](N)C(=O)O`
92.6

Return reported cell viability; argument: `O=S(=O)(N[C@H](CO)C(C(F)(F)F)C(F)(F)F)c1ccc(Cl)s1`
99.1

Param item = `CC[C@H]1[C@@H]2C[C@H]3[C@@H]4N(C)c5ccccc5[C@]45C[C@@H]([C@@H]2[C@H]5O)N3[C@@H]1O` ; retrieve measured cell viability.
92

---

Test system: Vero E6
Test: cell viability relative to DMSO; higher = less toxic
Conditions: 72 h; 1000 nM
Kindly supply the reported cell viability values for the records listed here.
Write down the numeric answer in % and omit the unit.

Name the reported cell viability value associated with the compound CN(C)CCN1C(=O)c2cccc3cc(N)cc(c23)C1=O [amonafide]
94.1

Given the compound `CC[C@@H](Nc1c(Nc2cccc(C(=O)N(C)C)c2O)c(=O)c1=O)c1ccc(C)o1` , what is its reported cell viability?
90.2

Consider the compound `CC=C1C(=O)C[C@H]2[C@@H]3CCC4=CC(=O)CC[C@]4(C)[C@H]3CC[C@]12C` and give its measured cell viability.
104

What measured cell viability goes with NCC(CC(=O)O)c1ccccc1 (configuration not stated) ?
101

Report cell viability for O=C(Oc1ccccc1)c1ccccc1O [phenyl-salicylate] please.
98.4

// returns reported cell viability for input `O=C(Nc1ccccc1)c1cc([N+](=O)[O-])ccc1Cl`
99.9

cell viability for `CO[C@H]1CC[C@H](N(c2cc(C3=CCCCC3)sc2C(=O)O)C(=O)[C@H]2CC[C@H](C)CC2)CC1` ?
103
